Target: MDM2 (Homo sapiens, UniProt Q00987)
Sequence (Q00987 whole entry): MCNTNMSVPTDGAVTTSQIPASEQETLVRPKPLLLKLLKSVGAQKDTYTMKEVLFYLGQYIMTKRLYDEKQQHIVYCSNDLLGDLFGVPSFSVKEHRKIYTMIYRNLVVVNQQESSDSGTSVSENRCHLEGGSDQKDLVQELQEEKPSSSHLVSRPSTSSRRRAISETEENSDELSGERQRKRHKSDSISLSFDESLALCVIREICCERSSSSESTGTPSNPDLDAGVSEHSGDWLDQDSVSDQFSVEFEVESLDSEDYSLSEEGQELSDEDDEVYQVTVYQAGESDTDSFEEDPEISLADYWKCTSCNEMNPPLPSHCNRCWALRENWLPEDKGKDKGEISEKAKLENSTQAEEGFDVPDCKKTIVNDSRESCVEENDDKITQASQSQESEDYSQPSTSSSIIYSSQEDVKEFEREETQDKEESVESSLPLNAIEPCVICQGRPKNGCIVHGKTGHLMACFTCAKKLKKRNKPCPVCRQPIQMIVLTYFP
Assay: MDM2 binding screen: displacement of fluorescent p53 peptide probe FP53 (fluorescence polarization)
Conditions: Acid 14; initial screen; crude macrocycle reactions
Numbered stars: 1 amine (or outer) side, 2 acyl side, 3 side chain; on linkers, the order of the positions; unused ones are H or OH. Bridge positions count the residues as written; N and C are the ends. Square brackets hold non-standard residues; d marks the D form. Peptide text beside a SMILES is read from it. * marks the point of attachment. 2Thenoyl(5-Cl) = O=C(c1ccc(Cl)s1)*; Cysteamide = C(CS[*:3])N[*:1]; Api = NC1(C(=O)O)CCNCC1; Dap = NC[C@H](N)C(=O)O; Mpa = O=C(O)CCS
Property Label: fraction fluorescent probe displaced, Screen

(I) O=C1CCNC(=O)C2(CCN(C(=O)c3ccc(Cl)s3)CC2)NC(=O)CCSSCCNC(=O)[C@H](Cc2c[nH]c3ccccc23)N1
(II) O=C1CCSSCCNC(=O)C2CC(NC(=O)c3ccc(Cl)s3)CN2C(=O)C2CCCN(C2)C(=O)C(Cc2ccccc2)N1 (centres unmarked)
[in] Between I and II , which one has the lower reported fraction fluorescent probe displaced, Screen value? Please reply using the label of the selected record.
[out] II

(1) O=C1CCSSCCNC(=O)[C@H](Cc2c[nH]c3ccccc23)NC(=O)[C@@H]2CCCN2C(=O)C2(CCN(C(=O)c3ccc(Cl)s3)CC2)N1 [X D6 B1 W Acid 14] ([Mpa][Api](2Thenoyl(5-Cl))PW-Cysteamide; disulfide 1-C)
(2) O=C1CCSSCCNC(=O)[C@H](CNC(=O)c2ccc(Cl)s2)NC(=O)[C@H]2CCCN(C2)C(=O)[C@H](Cc2ccccc2)N1
[in] Between 1 and 2 , which one has the lower reported fraction fluorescent probe displaced, Screen value? Please reply using the label of the selected record.
[out] 1

(I) O=C1CCSSCCNC(=O)C2CC(NC(=O)c3ccc(Cl)s3)CN2C(=O)c2cccc(c2)CNC(=O)C(Cc2c[nH]c3ccccc23)N1 (centres unmarked)
(II) O=C1CCSSCCNC(=O)[C@H]2CCCN(C2)C(=O)[C@H](Cc2ccccc2)NC(=O)[C@H](CNC(=O)c2ccc(Cl)s2)N1
(III) O=C1CCSSCCNC(=O)[C@@H]2CCCN2C(=O)[C@H](CNC(=O)c2ccc(Cl)s2)NC(=O)[C@H](Cc2c[nH]c3ccccc23)N1 [X W D3 B1 Acid 14] ([Mpa]W[Dap](2Thenoyl(5-Cl))P-Cysteamide; disulfide 1-C)
(IV) O=C(NC1CC2C(=O)NC(Cc3ccccc3)C(=O)N3CCCC(C3)C(=O)NCCSSCCC(=O)N2C1)c1ccc(Cl)s1 (centres unmarked)
[in] Sort low-to-high on fraction fluorescent probe displaced, Screen, please. Returns: the labels listed in the requested order.
[out] IV, II, I, III
(IV: 0.0241, II: 0.053, I: 0.14, III: 0.28)

###

Molecular target: thrombin (Homo sapiens, UniProt P00734)
Construct: consists of two polypeptide chains of 36 (light chain) and 259 amino acid
Assay: Thrombin inhibition screen of crude macrocycle reactions (residual thrombin activity, fluorogenic substrate Z-Gly-Gly-Arg-AMC)
Assay type: biochemical
Conditions: 10 µM macrocycle concentration; crude reactions, Library 1a-l; scaffold AA1-AA2-AA3 combined with 1-16 or '-'
Description: As a proof-of-concept, we screened the macrocycle library for inhibitors against thrombin, which is the central blood coagulation protease and an important therapeutic target. We conducted the screen for thrombin-inhibiting macrocycles in 384-well reaction plates. Briefly, each well contained a unique macrocycle (10 μM), 5 μL of thrombin (2 nM final conc.), and subsequently, 5 µL of a fluorogenic substrate to measure the residual thrombin activity and the extent of protease inhibition. […]
Numbered stars: 1 amine (or outer) side, 2 acyl side, 3 side chain; on linkers, the order of the positions; unused ones are H or OH. Bridge positions count the residues as written; N and C are the ends. Square brackets hold non-standard residues; d marks the D form. Peptide text beside a SMILES is read from it. * marks the point of attachment. 2Thenoyl(5-Cl) = O=C(c1ccc(Cl)s1)*; Cysteamide = C(CS[*:3])N[*:1]; X3 = O=C(Cc1c[nH]c2ccccc12)*; Isovaleryl = CC(C)CC(=O)*; Orn = NCCC[C@H](N)C(=O)O; Bz = O=C(c1ccccc1)*; βAla = NCCC(=O)O; Mpa = O=C(O)CCS
Property Label: percent residual thrombin activity (%)

>  <Molecule>
O=C(NCCC[C@@H]1NC(=O)[C@H](CO)NC(=O)[C@@H]2CCCN2C(=O)CCSSCCNC1=O)c1ccc(Cl)s1 [B1-S-D2/14] ([Mpa]PS[Orn](2Thenoyl(5-Cl))-Cysteamide; disulfide 1-C)

>  <Measured On>
thrombin (Homo sapiens, UniProt P00734)

>  <percent residual thrombin activity (%)>
96.3876

$$$$
>  <Molecule>
CC(C)C[C@@H]1NC(=O)CCSSCCNC(=O)[C@H](CCCCNC(=O)c2ccc(Cl)s2)NC(=O)C2(CC2)CNC1=O [L-B6-D1/14]

>  <Measured On>
thrombin (Homo sapiens, UniProt P00734)

>  <percent residual thrombin activity (%)>
94.7651

$$$$
>  <Molecule>
O=C(Cc1c[nH]c2ccccc12)NCCCC[C@@H]1NC(=O)[C@@H](CO)NC(=O)[C@@H]2CCCN2C(=O)CCSSCCNC1=O [B1-s-D1/12] ([Mpa]P[dS]K(X3)-Cysteamide; disulfide 1-C)

>  <Measured On>
thrombin (Homo sapiens, UniProt P00734)

>  <percent residual thrombin activity (%)>
111.278

$$$$
>  <Molecule>
C[C@H]1NC(=O)[C@H](CCCNC(=O)c2ccccc2)NC(=O)CCSSCCNC(=O)CCNC1=O [D2-a-B2/1] ([Mpa][Orn](Bz)[dA][βAla]-Cysteamide; disulfide 1-C)

>  <Measured On>
thrombin (Homo sapiens, UniProt P00734)

>  <percent residual thrombin activity (%)>
113.72

$$$$
>  <Molecule>
CC[C@H](C)[C@@H]1NC(=O)[C@H](CCCNC(=O)CC(C)C)NC(=O)CCSSCCNC(=O)CCNC1=O [D2-I-B2/8] ([Mpa][Orn](Isovaleryl)I[βAla]-Cysteamide; disulfide 1-C)

>  <Measured On>
thrombin (Homo sapiens, UniProt P00734)

>  <percent residual thrombin activity (%)>
110.049

$$$$

The measurements presented in this section are drawn from paper PMC9250534.
